Target: UniProtKB P21554
Sequence (P21554 whole entry): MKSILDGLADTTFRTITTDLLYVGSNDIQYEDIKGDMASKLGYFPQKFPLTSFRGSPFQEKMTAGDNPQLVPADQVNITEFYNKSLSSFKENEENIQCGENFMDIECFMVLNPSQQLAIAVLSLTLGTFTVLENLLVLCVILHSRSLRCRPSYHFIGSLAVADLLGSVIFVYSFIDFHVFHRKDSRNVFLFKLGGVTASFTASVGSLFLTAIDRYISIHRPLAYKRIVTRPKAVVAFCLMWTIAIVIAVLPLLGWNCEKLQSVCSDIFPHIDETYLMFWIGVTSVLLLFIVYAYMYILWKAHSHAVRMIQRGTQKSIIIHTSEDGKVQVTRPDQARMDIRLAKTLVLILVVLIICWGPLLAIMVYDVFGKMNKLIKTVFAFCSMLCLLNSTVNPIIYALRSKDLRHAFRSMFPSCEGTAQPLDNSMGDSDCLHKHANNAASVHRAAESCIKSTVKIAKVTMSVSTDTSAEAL
Assay: cAMP CNR1 Hunter cell line antagonist assay (CB1 assay)
Details: antagonist mode, cAMP CNR1 Hunter cells, EC80 agonist; read-out: CB1 assay, Efficacy (IC50)
Protocol: cAMP CNR1 Hunter cell line (Eurofins DiscoveryX) were expanded from freezer stocks and seeded in a total volume of 20 μL into white walled, 384-well microplates and incubated at 37° C. for the appropriate time prior to testing. […] Microplates were read following signal generation with a PerkinElmer Envision™ instrument for chemiluminescent signal detection. Compound activity (IC50) was analyzed using CBIS data analysis suite (ChemInnovation, CA).
Quick list: IC50 per entry.

Worked examples follow.
# compound, IC50
records = [
    ("COc1ccc(NS(=O)(=O)c2cc(Br)cc3c2OC(C)C(=O)N3C)cc1Cl (centres unmarked)", "≥ 25 µM"),
    ("CCc1ccc(NS(=O)(=O)c2cc(S(C)(=O)=O)cc3c2OCC(=O)N3)cc1", "≥ 25 µM"),
    ("Cc1cc2c(cc1S(=O)(=O)Nc1ccc(Cl)cc1)OCC(=O)N2", "< 1 µM"),
    ("COc1ccc(NS(=O)(=O)c2cc(Br)cc3c2OCCNC3=O)cc1", "≥ 25 µM"),
]

Continue with the compound presented below.
q: Form entry - test system: UniProtKB P21554; read-out: IC50; compound: `O=C1COc2cc(S(=O)(=O)NCCc3ccc(OC(F)(F)F)cc3)c(Br)cc2N1`
a: ≥ 25 µM
